- Read-out: 3-Hydroxy-3-Methylglutaryl-CoA Synthase 2 (HMGCS2), HMGCS2 (gene 3158)
- assay.details: LTEA_HepaRG_HMGCS2: Life Technologies and Expression Analysis (LTEA) Assay for 3-Hydroxy-3-Methylglutaryl-CoA Synthase 2 (HMGCS2) using HepaRG (AID 2283504)
- stated.conditions: mRNA level, 48 h; actives raise or lower the signal
Calls of active or inactive are those of the source. How the source made its calls: active means hit-call score of the fitted dose curve at least 0.9, where 1 is the maximum; inactive means score below 0.9.
Your answer must be one of the following: active, inactive

Prompt line: Record lookup: outcome of this test for OC1CCCCC1 ?
Response line: inactive

Prompt line: Record lookup: outcome of this test for N#C[C@@H]1CC(F)(F)CN1C(=O)CNC1CC2CCC(C1)N2c1ncccn1 (some centres undefined) ?
Response line: inactive

Prompt line: Record lookup: outcome of this test for CC[C@H](c1ccc(O)cc1)[C@@H](CC)c1ccc(O)cc1 ?
Response line: active

Prompt line: Record lookup: outcome of this test for C#C[C@]1(O)CC[C@H]2[C@@H]3CCC4=CC(=O)CC[C@@H]4[C@H]3CC[C@@]21C ?
Response line: inactive

Prompt line: Record lookup: outcome of this test for CC(=O)CC(C)(C)O ?
Response line: inactive

Prompt line: Record lookup: outcome of this test for CCCCCCCCCCCCN1CCCC1=O ?
Response line: inactive

Prompt line: Record lookup: outcome of this test for CC(C)(C)c1ccc(O)c(C(C)(C)C)c1 ?
Response line: inactive

Prompt line: Record lookup: outcome of this test for CC(C)(C)c1cccc(C(C)(C)C)c1O ?
Response line: inactive

Prompt line: Record lookup: outcome of this test for c1ccc2cc3c(ccc4ccccc43)cc2c1 ?
Response line: active

Prompt line: Record lookup: outcome of this test for CCCCCCCCC(=O)O ?
Response line: inactive

Prompt line: Record lookup: outcome of this test for CCOC(=O)CC(O)(CC(=O)OCC)C(=O)OCC ?
Response line: inactive

Prompt line: Record lookup: outcome of this test for CCCCC(CC)COC(=O)CCCCC(=O)OCC(CC)CCCC (centres undefined) ?
Response line: inactive

Prompt line: Record lookup: outcome of this test for CCCOC(=O)c1ccc(O)cc1 ?
Response line: inactive

Prompt line: Record lookup: outcome of this test for OCCC(F)(F)C(F)(F)C(F)(F)C(F)(F)C(F)(F)C(F)(F)C(F)(F)C(F)(F)F ?
Response line: inactive

###

- measured.on: Retinoic acid receptor alpha (Homo sapiens)
- assay.details: ATG_DR5_RAR_CIS: Attagene CIS-FACTORIAL HepG2 Assay for human Retinoic Acid Receptor Alpha (RARE), DR5 submotif (AID 2282934)
- stated.conditions: HepG2 Attagene cis-factorial RARE DR5 reporter, mRNA; actives raise or lower the signal
Calls of active or inactive are those of the source. Rule for the calls: active = hit-call score of the fitted dose curve at least 0.9, where 1 is the maximum; inactive = score below 0.9.
Your answer must be one of the following: active, inactive

Prompt line: Record lookup: outcome of this test for NCC(F)(F)C(F)(F)C(F)(F)C(F)(F)C(F)(F)C(F)(F)C(F)(F)F ?
Response line: inactive

Prompt line: Record lookup: outcome of this test for CCCCC(CC)COC(=O)CCCCC(=O)OCc1ccccc1 (stereo not drawn) ?
Response line: inactive

Prompt line: Record lookup: outcome of this test for CCCCCCCCCCCCN1CCCC1=O ?
Response line: inactive

Prompt line: Record lookup: outcome of this test for CCCCCCCCCCCCCC[N+](C)(C)C ?
Response line: inactive

Prompt line: Record lookup: outcome of this test for CC(C)(C)c1cccc(C(C)(C)C)c1O ?
Response line: active

Prompt line: Record lookup: outcome of this test for CCCCC(CC)COC(=O)CCCCC(=O)OCC(CC)CCCC (stereo not drawn) ?
Response line: inactive

Prompt line: Record lookup: outcome of this test for FC(F)(I)C(F)(F)C(F)(F)C(F)(F)C(F)(F)C(F)(F)I ?
Response line: inactive

Prompt line: Record lookup: outcome of this test for Oc1cccc(O)c1 ?
Response line: inactive
